Values were extracted from PubChem BioAssay AID2060489.

For each of the compounds below, state its viability, T/C.
# Test system: 922993-354-T-J3-PDC complex spheroids, viability;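 also: spheroids exposed to compounds for seven days; 100% = DMSO vehicle control viability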
# assay_method_text: Anticancer human tumor 922993-354-T-J3-PDC patient-derived endometrial carcinoma cell line growth inhibition [GQUAD]
# assay_conditions: second compound 3.16 µM; first compound 1 µM; active compounds read low
# Source text: DNA G-quadruplex Stabilizer Agents in Combinations in Complex Spheroids A high-throughput screen of multi-cell type tumor spheroids was designed to identify active combinations of DNA G-quadruplex stabilizer agents and targeted small molecules. […] Compounds. […] If the clinical Cmax for an agent had not been determined, the highest concentration tested was 10 microM. […]
Give bare numbers, in %.

As a guide, the following entries are already answered.
[[record]]
compound = "O=C(NO)c1cnc(N2CCN(S(=O)(=O)c3ccc4ccccc4c3)CC2)nc1 + Cc1cnc(CNC(=O)c2c(=O)c3ccc(N4CCCN(C)CC4)nc3n3c2sc2ccccc23)cn1"
recorded_value = 4.62

[[record]]
compound = "CC(C)n1c(=O)n(C)c2cnc3cc(F)c(-c4ccc(OCCCN5CCCCC5)nc4)cc3c21 + Cc1[nH]c2ccc(F)cc2c1-c1nc2c3cccnc3c3ncccc3c2[nH]1"
recorded_value = 95.1

[[record]]
compound = "CC(C)(O)C1CCC(Nc2ccc3ncc(-c4cccc(C(F)(F)F)c4)n3n2)CC1 (stereo not given) + Cc1cnc(CNC(=O)c2c(=O)c3ccc(N4CCCN(C)CC4)nc3n3c2sc2ccccc23)cn1"
recorded_value = 47.4

[[record]]
compound = "Cc1cccc(N(C)C(=O)C2C(O)CCN2c2nc(C)cc(C(F)(F)F)c2C#N)c1 (stereo not given) + Cc1cnc(CNC(=O)c2c(=O)c3ccc(N4CCCN(C)CC4)nc3n3c2sc2ccccc23)cn1"
recorded_value = 46.1


# next compound below
-- ask Any idea what viability, T/C was measured for O=C(NO)c1cnc(N2CCN(S(=O)(=O)c3ccc4ccccc4c3)CC2)nc1 + CN(C)c1ccc(Nc2c3ccc(NC(=O)CCN4CCCC4)cc3nc3cc(NC(=O)CCN4CCCC4)ccc23)cc1 ?
-- reply 34.3
